Biological target: vanilloid receptor 1 (VR1/TRPV1) of the rat (Rattus norvegicus, UniProt O35433)
Construct: host or cells: rat dorsal root ganglia primary cells (Ia) or CHO K1 cells stably transfected with the rat VR1 gene (Ib)
Sequence (O35433 whole entry): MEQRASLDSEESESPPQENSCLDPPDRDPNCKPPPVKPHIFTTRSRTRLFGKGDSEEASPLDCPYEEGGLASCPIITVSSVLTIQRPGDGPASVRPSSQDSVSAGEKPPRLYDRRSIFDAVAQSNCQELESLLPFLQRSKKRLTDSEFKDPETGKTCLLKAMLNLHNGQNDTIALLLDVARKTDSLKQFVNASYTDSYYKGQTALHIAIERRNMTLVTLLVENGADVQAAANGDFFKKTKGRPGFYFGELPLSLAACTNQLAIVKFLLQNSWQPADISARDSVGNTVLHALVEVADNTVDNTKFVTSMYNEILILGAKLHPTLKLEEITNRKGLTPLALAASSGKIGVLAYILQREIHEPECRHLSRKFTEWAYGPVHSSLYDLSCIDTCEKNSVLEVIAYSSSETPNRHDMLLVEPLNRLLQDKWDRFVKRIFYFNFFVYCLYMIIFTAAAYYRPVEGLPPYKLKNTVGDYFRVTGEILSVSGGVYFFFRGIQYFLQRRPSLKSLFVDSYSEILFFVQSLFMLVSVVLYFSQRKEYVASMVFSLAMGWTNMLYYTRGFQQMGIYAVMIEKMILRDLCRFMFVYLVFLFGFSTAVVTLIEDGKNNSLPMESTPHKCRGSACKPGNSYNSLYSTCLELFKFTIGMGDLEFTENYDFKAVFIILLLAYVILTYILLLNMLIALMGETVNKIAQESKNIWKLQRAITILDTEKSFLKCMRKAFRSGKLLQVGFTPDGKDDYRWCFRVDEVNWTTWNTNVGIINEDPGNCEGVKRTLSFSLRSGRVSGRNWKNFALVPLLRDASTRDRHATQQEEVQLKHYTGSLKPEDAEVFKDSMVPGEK
Test: FLIPR Ca2+ functional study on rat vanilloid receptor 1 (rat dorsal root ganglia cells or CHO K1 cells transfected with rat VR1)
Assay type: cell-based
Settings: CHO-K1; test compound 10 μM; suppression of Ca2+ current after 100 nM capsaicin, relative to maximum inhibition with 10 μM capsaicin (CP); read-out: VR1 (rat) (% inhibition compared to 10 μM CP)
From the text: The agonistic or antagonistic action of the substances to be studied on the vanilloid receptor 1 (VR1/TRPV1) of the rat species can be determined with the following assay. In this assay, the Ca^2+ current through the receptor channel is quantified with the aid of a Ca^2+-sensitive dye (Fluo-4 type, Molecular Probes Europe BV, Leiden the Netherlands) in a fluorescent imaging plate reader (FLIPR, Molecular Devices, Sunnyvale, USA). […]
In this section we review reported inhibition at 10 µM values for a set of compounds.
Quick reminder: number only, in %, skip the unit.

Take a look at these entries with their results.
[[record]]
compound = "COc1ccc(NC(=O)OCC2(COC(=O)Nc3ccc(OC)cc3)CSc3ccccc3C2=O)cc1"
endpoint = "inhibition at 10 µM"
result_unit = "%"
measured = 41.1

[[record]]
compound = "Cc1cccc2c1C(=O)C(COC(=O)Nc1ccccc1)(COC(=O)Nc1ccccc1)CS2(=O)=O"
endpoint = "inhibition at 10 µM"
result_unit = "%"
measured = 96.8

[[record]]
compound = "Cc1ccc2c(c1)[S+]([O-])CC(COC(=O)Nc1ccccc1)(COC(=O)Nc1ccccc1)C2=O (stereo not drawn)"
endpoint = "inhibition at 10 µM"
result_unit = "%"
measured = 61.5

[[record]]
compound = "Cc1ccc2c(c1)S(=O)(=O)CC(COC(=O)Nc1ccccc1)(COC(=O)Nc1ccccc1)C2=O"
endpoint = "inhibition at 10 µM"
result_unit = "%"
measured = 88.8


I have this compound here, O=C(Nc1ccccc1)OCC1(COC(=O)Nc2ccccc2)CS(=O)(=O)c2ccccc2C1=O , and I need its recorded inhibition at 10 µM.
83.9

Same question, CC(C)(C)c1ccc(NC(=O)OCC2(COC(=O)Nc3ccc(C(C)(C)C)cc3)CSc3ccccc3C2=O)cc1 this time
99.9

Same question, O=C(Nc1ccccc1)OCC1(COC(=O)Nc2ccccc2)CSc2ccccc2C1=O this time
14

Same question, Cc1cccc2c1SCC(CO)(COS(=O)(=O)c1ccc(C(C)(C)C)cc1)C2=O (stereo not drawn) this time
40.3

Same question, Cc1cccc2c1C(=O)C(COC(=O)Nc1ccccc1)(COC(=O)Nc1ccccc1)CS2 this time
106
